# assayTarget: Bifunctional epoxide hydrolase 2 (Homo sapiens, UniProt P34913)
# Sequence (P34913 whole entry): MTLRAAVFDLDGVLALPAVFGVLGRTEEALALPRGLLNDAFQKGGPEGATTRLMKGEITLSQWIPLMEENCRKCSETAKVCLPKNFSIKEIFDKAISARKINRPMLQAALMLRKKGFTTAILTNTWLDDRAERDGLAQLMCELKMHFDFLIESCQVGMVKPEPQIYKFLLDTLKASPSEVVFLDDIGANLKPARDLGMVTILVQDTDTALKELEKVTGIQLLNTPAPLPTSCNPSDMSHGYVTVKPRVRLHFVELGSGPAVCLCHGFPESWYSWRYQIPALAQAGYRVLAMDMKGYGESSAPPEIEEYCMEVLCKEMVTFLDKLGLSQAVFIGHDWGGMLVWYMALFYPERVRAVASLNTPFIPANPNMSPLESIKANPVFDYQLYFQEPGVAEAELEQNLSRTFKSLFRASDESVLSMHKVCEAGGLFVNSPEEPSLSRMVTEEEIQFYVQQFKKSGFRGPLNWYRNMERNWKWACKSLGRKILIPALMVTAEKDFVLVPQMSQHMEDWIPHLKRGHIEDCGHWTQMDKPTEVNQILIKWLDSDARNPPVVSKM
# procedureSummary: Inhibition of human recombinant soluble epoxide hydrolase using CMNPC as substrate after 10 mins by fluorescent assay
reportedMetric: IC50 (nM)
Respond numerically; units are nM and should not be typed.

Worked examples follow.
INSERT INTO measurements (molecule, observedresult) VALUES
  ('CCOCCNC(=O)NC12CC3CC(CC(C3)C1)C2', 525),
  ('CCCCCCCNC(=O)Nc1cccc(C(F)(F)F)c1F', 0.4),
  ('CC(C)OCCNC(=O)NC12CC3CC(CC(C3)C1)C2', 260),
  ('O=C(Nc1ccc(F)c(F)c1F)NC1CCCCCCC1', 0.4),
  ('CC(=O)C1CCC(NC(=O)Nc2ccc(OC(F)(F)F)cc2)CC1 (centres undefined)', 12),
  ('CC(C)(C)NC(=O)NC1C2CC3CC(C2)CC1C3 (centres undefined)', 24.2);

Please give the measured IC50 for this molecule: `CCCCCCCNC(=O)Nc1ccc(F)c(F)c1F`
0.4

Please give the measured IC50 for this molecule: CC1(C)C2CCC(CNC(=O)Nc3ccc(F)c(F)c3F)C1C2 (centres undefined)
0.4

Please give the measured IC50 for this molecule: CC(CCc1ccccc1)NC(=O)Nc1cccc(C(F)(F)F)c1F (centres undefined)
1.9
